B1: Chromodomain-helicase-DNA-binding protein 4, residues 623 to 675; numbered along this chain, Q14839 (parent)
chain: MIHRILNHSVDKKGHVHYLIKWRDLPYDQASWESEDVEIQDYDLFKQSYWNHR

variants of: B1; assay: abundance fitness (aPCA) (normalised: wild type 0, dead -1); higher = more abundant; growth selection in yeast, the domain comes from the species named; conditions: Homo sapiens

>  <variant string>
W32K

>  <abundance fitness>
-1.01

$$$$
>  <variant string>
A30E

>  <abundance fitness>
-0.717

$$$$
>  <variant string>
H17L

>  <abundance fitness>
-0.292

$$$$
>  <variant string>
G14C

>  <abundance fitness>
-0.785

$$$$
>  <variant string>
W22T

>  <abundance fitness>
-0.871

$$$$
>  <variant string>
H17G

>  <abundance fitness>
-0.756

$$$$
>  <variant string>
R23G

>  <abundance fitness>
-0.481

$$$$
>  <variant string>
G14A

>  <abundance fitness>
-0.919

$$$$
>  <variant string>
G14F

>  <abundance fitness>
-0.716

$$$$
>  <variant string>
Y18D

>  <abundance fitness>
-0.963

$$$$
>  <variant string>
G14D

>  <abundance fitness>
-0.727

$$$$
>  <variant string>
L19H

>  <abundance fitness>
-0.814

$$$$
>  <variant string>
L25K

>  <abundance fitness>
0.206

$$$$
>  <variant string>
V16T

>  <abundance fitness>
-0.059

$$$$
>  <variant string>
S31Q

>  <abundance fitness>
-0.646

$$$$
>  <variant string>
D24G

>  <abundance fitness>
-0.115

$$$$
>  <variant string>
H17E

>  <abundance fitness>
-0.242

$$$$
>  <variant string>
D28A

>  <abundance fitness>
0.116

$$$$
>  <variant string>
Q29A

>  <abundance fitness>
-0.105

$$$$
>  <variant string>
H17Y

>  <abundance fitness>
-0.04

$$$$
>  <variant string>
S31I

>  <abundance fitness>
-0.702

$$$$
>  <variant string>
H15M

>  <abundance fitness>
-0.134

$$$$
